Test system: B-cell non-Hodgkin lymphoma cells KARPAS-422
method: Cell proliferation analysis, KARPAS-422, 13 days, CellTiter-Glo
Type: cell-based, Human
conditionInfo: Homo sapiens, KARPAS-422, 312 h, Karpas-422, 13 days
# maps each entry to its IC50
Respond with the bare value in µM.

Known results for compounds:
INSERT INTO measurements (compound, numericreadout) VALUES
  ('CC(O)(CF)c1ccc(-c2cnc(NCc3c(F)ccc4c3CCO4)n3cnnc23)c2ncnn12 (single isomer, unassigned) [Compound g]', 0.0015),
  ('Cc1nc2c(-c3cnc(NCc4c(F)ccc5c4CCO5)n4cnnc34)cnc(C(C)(C)O)n2n1', 0.0065),
  ('CC(O)(c1ccc(-c2cnc(NCc3c(F)ccc4c3CCO4)n3cnnc23)c2ncnn12)C(F)F (stereo not shown)', 0.0048);

Look at this compound and give its reported IC50. CC(C)(O)Cc1ccc(-c2cnc(NCc3c(F)ccc4c3CCO4)n3cnnc23)c2ncnn12
0.0102
